Target: T1, macaca fascicularis (mf) PRLR.mmh (soluble monomeric monkey PRLR) (Macaca fascicularis)
T1 construct: called soluble monomeric PRLR protein
T1 chain: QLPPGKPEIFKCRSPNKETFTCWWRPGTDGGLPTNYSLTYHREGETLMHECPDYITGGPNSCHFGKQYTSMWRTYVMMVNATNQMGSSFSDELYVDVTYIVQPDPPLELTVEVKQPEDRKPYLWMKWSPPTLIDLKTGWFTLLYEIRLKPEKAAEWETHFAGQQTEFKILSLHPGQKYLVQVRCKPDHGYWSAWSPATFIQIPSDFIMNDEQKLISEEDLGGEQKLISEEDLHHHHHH
Test: SPR Biacore, 25 C, mAb capture
Decide by T½: equal to or exceeding 30 min means 1, less means 0.

Solved entries:
| binder | class-name |
| --- | --- |
| H1H6782P (antibody, human IgG1, V domains shown, Human IgG1 Fc (H1H)) VH: EVQLVESGGGLVQPGRSLRLSCAASGFTFDDYAMHWVRQAPGKGLEWVSGIIWNSGHIGYGDSVKGRFTISRDNAKKSLYLQMNSLRAEDTALYYCARDSGRYQSYFDYWGQGTLVTVSS VL: DIQMTQSPSTLSASVGDRVTITCRASHIISSWLAWYQQKPGKAPKVLIFKASSLESGVPSRFSGSGSGTEFTLTISSLQPDDFATYYCQQYNTYSRTFGQGTKVEIK | 1 |
| H1H6804P (antibody, human IgG1, V domains shown, Human IgG1 Fc (H1H)) VH: QVTLKESGPVLVKPTQTLSLTCTVSGFSLSDAGMGVSWIRQPPGKALEWLAHIFSNDGKSYSTSLKSRLTISKDTSKRQVVLTMTNMDPVDTATYYCARIRTGTYSLYLDYWGQGTLVTVSS VL: DIQMTQSPSSLSASVGDRVTITCRASQSINSYLNWYQQKPGKAPKLLLYFASSLQSGVPSRFSGSGSGTDFTLTISSLQPEDFASYYCQESYSTPWTFGQGTKVEIK | 0 |
| H1H6803P (antibody, human IgG1, V domains shown, Human IgG1 Fc (H1H)) VH: EVQLVESGGGVVRPGGSLRLSCAASGFKFDDYGMTWVRHVPGKGLEWVSGINWNGGRTGYTDSVKGRFTISRDNAKNSLYLQMNSLRAEDTALYHCAGARRDAFDIWGQGTMVTVSS VL: DIQMTQSPSSLSASIGDRVTITCRASQNIIKYLNWYQQNAGKAPKLLIYTASSLQSGVPSRFSGSGSGTDFTLTISSLQPEDFATYYCQQSSSSPYTFGQGTKLEIK | 1 |
| H1H6793P (antibody, human IgG1, V domains shown, Human IgG1 Fc (H1H)) VH: EVQLVESGGGLVQPGGSLRLSCAASGFSFSIYAMSWFRQAPGKGLEWVSAINGRGDGTHYADSVKGRFTISRDNSKTTLYLQMSSLRAEDTAVYYCAKPVMSTNGFDIWGQGTMVTVSS VL: DIQMTQSPSTLSASVGDRVTITCRASQSISSWLAWYQLKPGKAPKLLIYKASNLESGVPSRFSGSGSGTEFTLTISSLQPDDFATYYCQQYNIYWTFGQGTKVEIK | 0 |

Q: Is T½ for H1H6801P (antibody, human IgG1, V domains shown, Human IgG1 Fc (H1H)) VH: QVQLQQSGPGLVKPSQTLSLTCVISGDSVSSNTAWNWVRQSPSRGLEWLGRTYYRSKWYNDYAVSVKSRITINPDTSKNQFSLLMNSVTPEDTAVYYCARVVRGLNYFDYWGQGTLVTVSS VL: DIVMTQSPDSLAVSLGERATINCKSSQSVLYNSNNKNYLAWYQQKPGQPPKLLIYWSSSRESGVPDRFSGSGSGTDFTLTISGLQAEDVAIYYCQQYSTIPYTFGQGTKLEIK at or above 30 min?
A: 0

Q: Next entry: H1H6762P (antibody, human IgG1, V domains shown, Human IgG1 Fc (H1H)) VH: QVQLVESGGGVVQPGRSLRLSCAASGFTFSHYGMVWVRQPPGKGLEWVALISFDGTTKYYADSVKGRFTISRDNSKNTLYLQMNSLRAEDTAVYFCVGAIAAAAFDLWGRGTLVTVSS VL: EIVMTQSPATLSVSPGERATLSCRASQSVSSDLAWYQQKPGQAPRLLIYSASARATGIPARFTGSGSGTDFTLTISSLQSEDFAVYYCQQYNNWPMYTFGQGTKLEIK
A: 1

Q: Same again, this time with H1H6959N2 (antibody, human IgG1, V domains shown, Tested with human IgG1 Fc (H1H); also called H2M6959N2) VH: EVQLVESGGGLVQPGRSLRLSCAASGFTFDDYAMHWVRQAPGKGLEWVSGISWHSGIIGYADSVKGRFTISRDNAKNSLYLQMNSLRTEDAALYYCAKIGSYFYFDSWGQGTLVTVSS VL: EIVLTQSPGTLSLSPGERATLSCRASQSVSSNYLAWYQQKPGQAPRLLIYGASSRATGIPDRFSGSGSGTDFTLTISRLEPEDFAVYYCQQFGSSGYTFGQGTNLEIK
A: 0

Source listed as patent US20180185504A1.
